Data provenance is PubChem BioAssay AID1963432.

- System: SYO-1 complex spheroid growth, percent test/control
- experiment.description: Anticancer human tumor SYO-1 cell line growth inhibition [Asc];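 also: compound exposure lasted 7 days after spheroids grew 3 days; 100% = DMSO vehicle control viability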
- test.parameters: second compound 3.16 µM; first compound 0.0316 µM; hits give low values
readout.type: viability, T/C (%)
One number for each entry, in %.

molecule	viability, T/C / %
C#Cc1c(F)ccc2cc(O)cc(-c3ncc4c(N5CC6CCC(C5)N6)nc(OCC56CCCN5CC(F)C6)nc4c3F)c12 (stereo not given) + Cc1c(S(C)(=O)=O)c(-c2cc(F)cc(N3CCN(c4ccc(NS(=O)(=O)c5ccc(NC(CCN6CCC(C(=O)OCCCP(=O)(O)O)CC6)CSc6ccccc6)c(S(=O)(=O)C(F)(F)F)c5)cc4)CC3)c2)c(-c2ccc(Cl)cc2)n1C(C)C	83.9
C=CC(=O)N1CCN(c2nc(=O)n(-c3c(C)ccnc3C(C)C)c3nc(-c4c(O)cccc4F)c(F)cc23)C(C)C1 (stereo not given) + Cc1c(S(C)(=O)=O)c(-c2cc(F)cc(N3CCN(c4ccc(NS(=O)(=O)c5ccc(NC(CCN6CCC(C(=O)OCCCP(=O)(O)O)CC6)CSc6ccccc6)c(S(=O)(=O)C(F)(F)F)c5)cc4)CC3)c2)c(-c2ccc(Cl)cc2)n1C(C)C	91.5
O=C(c1ccc(F)c(F)c1Nc1ccc(I)cc1F)N1CC(O)([C@@H]2CCCCN2)C1 + Cc1c(S(C)(=O)=O)c(-c2cc(F)cc(N3CCN(c4ccc(NS(=O)(=O)c5ccc(NC(CCN6CCC(C(=O)OCCCP(=O)(O)O)CC6)CSc6ccccc6)c(S(=O)(=O)C(F)(F)F)c5)cc4)CC3)c2)c(-c2ccc(Cl)cc2)n1C(C)C	87.2

The following molecules each have a reported value; give each one's viability, T/C.
1. O=C(c1cc(Cc2n[nH]c(=O)c3ccccc23)ccc1F)N1CCN(C(=O)C2CC2)CC1 + Cc1c(S(C)(=O)=O)c(-c2cc(F)cc(N3CCN(c4ccc(NS(=O)(=O)c5ccc(NC(CCN6CCC(C(=O)OCCCP(=O)(O)O)CC6)CSc6ccccc6)c(S(=O)(=O)C(F)(F)F)c5)cc4)CC3)c2)c(-c2ccc(Cl)cc2)n1C(C)C
2. COc1c(OCCCN2CCOCC2)ccc2c3n(c(=NC(=O)c4cnc(N)nc4)nc12)CCN3 + Cc1c(S(C)(=O)=O)c(-c2cc(F)cc(N3CCN(c4ccc(NS(=O)(=O)c5ccc(NC(CCN6CCC(C(=O)OCCCP(=O)(O)O)CC6)CSc6ccccc6)c(S(=O)(=O)C(F)(F)F)c5)cc4)CC3)c2)c(-c2ccc(Cl)cc2)n1C(C)C

Key:
1. 93.4
2. 92.3

###

- Test system: SYO-1 complex spheroid growth, percent test/control
- experiment.description: Anticancer human tumor SYO-1 cell line growth inhibition [Asc];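 also: compound exposure lasted 7 days after spheroids grew 3 days; 100% = DMSO vehicle control viability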
- test.parameters: second compound 1 µM; first compound 0.1 µM; hits give low values
readout.type: viability, T/C (%)
Numbers only, in %.

The following compounds have reported results that may help.
compound	unit	viability, T/C
C=C(F)C(=O)N1CCN(c2nc(OCC3CCCN3C)nc3c2CCN(c2cccc4cccc(Cl)c24)C3)CC1CC#N (stereo unspecified) + Cc1c(S(C)(=O)=O)c(-c2cc(F)cc(N3CCN(c4ccc(NS(=O)(=O)c5ccc(NC(CCN6CCC(C(=O)OCCCP(=O)(O)O)CC6)CSc6ccccc6)c(S(=O)(=O)C(F)(F)F)c5)cc4)CC3)c2)c(-c2ccc(Cl)cc2)n1C(C)C	%	89.7
C=CC(=O)N1CCN(c2nc(=O)n(-c3c(C)ccnc3C(C)C)c3nc(-c4c(O)cccc4F)c(F)cc23)C(C)C1 (stereo unspecified) + Cc1c(S(C)(=O)=O)c(-c2cc(F)cc(N3CCN(c4ccc(NS(=O)(=O)c5ccc(NC(CCN6CCC(C(=O)OCCCP(=O)(O)O)CC6)CSc6ccccc6)c(S(=O)(=O)C(F)(F)F)c5)cc4)CC3)c2)c(-c2ccc(Cl)cc2)n1C(C)C	%	94
O=C(c1ccc(F)c(F)c1Nc1ccc(I)cc1F)N1CC(O)([C@@H]2CCCCN2)C1 + Cc1c(S(C)(=O)=O)c(-c2cc(F)cc(N3CCN(c4ccc(NS(=O)(=O)c5ccc(NC(CCN6CCC(C(=O)OCCCP(=O)(O)O)CC6)CSc6ccccc6)c(S(=O)(=O)C(F)(F)F)c5)cc4)CC3)c2)c(-c2ccc(Cl)cc2)n1C(C)C	%	98.9

The following compounds each have a reported value; give each one's viability, T/C.
1. O=C(c1ccc(F)c(F)c1Nc1ccc(I)cc1F)N1CC(O)([C@@H]2CCCCN2)C1 + CNC(C)C(=O)NC1CN(S(=O)(=O)c2cccc(S(=O)(=O)N3CCC4CCC(C(=O)NC(c5ccccc5)c5ccccc5)N4C(=O)C(NC(=O)C(C)NC)C3)c2)CCC2CCC(C(=O)NC(c3ccccc3)c3ccccc3)N2C1=O
2. COc1c(OCCCN2CCOCC2)ccc2c3n(c(=NC(=O)c4cnc(N)nc4)nc12)CCN3 + Cc1c(S(C)(=O)=O)c(-c2cc(F)cc(N3CCN(c4ccc(NS(=O)(=O)c5ccc(NC(CCN6CCC(C(=O)OCCCP(=O)(O)O)CC6)CSc6ccccc6)c(S(=O)(=O)C(F)(F)F)c5)cc4)CC3)c2)c(-c2ccc(Cl)cc2)n1C(C)C
3. COc1c(OCCCN2CCOCC2)ccc2c3n(c(=NC(=O)c4cnc(N)nc4)nc12)CCN3 + CNC(C)C(=O)NC1CN(S(=O)(=O)c2cccc(S(=O)(=O)N3CCC4CCC(C(=O)NC(c5ccccc5)c5ccccc5)N4C(=O)C(NC(=O)C(C)NC)C3)c2)CCC2CCC(C(=O)NC(c3ccccc3)c3ccccc3)N2C1=O

Key:
[98.4, 87.5, 113]

###

- Tested on: SYO-1 complex spheroid growth, percent test/control
- experiment.description: Anticancer human tumor SYO-1 cell line growth inhibition [Asc];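 also: compound exposure lasted 7 days after spheroids grew 3 days; 100% = DMSO vehicle control viability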
- test.parameters: second compound 0.03 µM; first compound 1 µM; hits give low values
readout.type: viability, T/C (%)
Give bare numbers, in %.

The following compounds have reported results that may help.
compound	viability, T/C [%]
C=C(F)C(=O)N1CCN(c2nc(OCC3CCCN3C)nc3c2CCN(c2cccc4cccc(Cl)c24)C3)CC1CC#N (stereo not drawn) + CCN1C(C(=O)NC23CCC(C(=O)O)(CC2)CC3)C(c2cccc(Cl)c2F)C2(C(=O)Nc3cc(Cl)ccc32)C12CCCCC2	111
O=C(c1cc(Cc2n[nH]c(=O)c3ccccc23)ccc1F)N1CCN(C(=O)C2CC2)CC1 + CCN1C(C(=O)NC23CCC(C(=O)O)(CC2)CC3)C(c2cccc(Cl)c2F)C2(C(=O)Nc3cc(Cl)ccc32)C12CCCCC2	55.2
CCN1CCN(Cc2ccc(Nc3ncc(F)c(-c4cc(F)c5nc(C)n(C(C)C)c5c4)n3)nc2)CC1 + CCN1C(C(=O)NC23CCC(C(=O)O)(CC2)CC3)C(c2cccc(Cl)c2F)C2(C(=O)Nc3cc(Cl)ccc32)C12CCCCC2	73.1
O=C(c1ccc(F)c(F)c1Nc1ccc(I)cc1F)N1CC(O)([C@@H]2CCCCN2)C1 + CCN1C(C(=O)NC23CCC(C(=O)O)(CC2)CC3)C(c2cccc(Cl)c2F)C2(C(=O)Nc3cc(Cl)ccc32)C12CCCCC2	103
C=CC(=O)N1CCN(c2nc(=O)n(-c3c(C)ccnc3C(C)C)c3nc(-c4c(O)cccc4F)c(F)cc23)C(C)C1 (stereo not drawn) + CCN1C(C(=O)NC23CCC(C(=O)O)(CC2)CC3)C(c2cccc(Cl)c2F)C2(C(=O)Nc3cc(Cl)ccc32)C12CCCCC2	103
CNC(C)C(=O)NC1CN(S(=O)(=O)c2cccc(S(=O)(=O)N3CCC4CCC(C(=O)NC(c5ccccc5)c5ccccc5)N4C(=O)C(NC(=O)C(C)NC)C3)c2)CCC2CCC(C(=O)NC(c3ccccc3)c3ccccc3)N2C1=O (stereo not drawn) + CCN1C(C(=O)NC23CCC(C(=O)O)(CC2)CC3)C(c2cccc(Cl)c2F)C2(C(=O)Nc3cc(Cl)ccc32)C12CCCCC2	96.6
C#Cc1c(F)ccc2cc(O)cc(-c3ncc4c(N5CC6CCC(C5)N6)nc(OCC56CCCN5CC(F)C6)nc4c3F)c12 (stereo not drawn) + CCN1C(C(=O)NC23CCC(C(=O)O)(CC2)CC3)C(c2cccc(Cl)c2F)C2(C(=O)Nc3cc(Cl)ccc32)C12CCCCC2	99.3

Now let's try a different one.
Exercise: # viability, T/C lookup, item COc1c(OCCCN2CCOCC2)ccc2c3n(c(=NC(=O)c4cnc(N)nc4)nc12)CCN3 + CCN1C(C(=O)NC23CCC(C(=O)O)(CC2)CC3)C(c2cccc(Cl)c2F)C2(C(=O)Nc3cc(Cl)ccc32)C12CCCCC2
Key: 30.6

###

- System: SYO-1 complex spheroid growth, percent test/control
- experiment.description: Anticancer human tumor SYO-1 cell line growth inhibition [Asc];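 also: compound exposure lasted 7 days after spheroids grew 3 days; 100% = DMSO vehicle control viability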
- test.parameters: second compound 3.16 µM; first compound 10 µM; hits give low values
Field: viability, T/C. Provide a value for each of the compounds that follow.
Give bare numbers, in %.

The following compounds have reported results that may help.
compound	readout.type	unit	reported
C=C(F)C(=O)N1CCN(c2nc(OCC3CCCN3C)nc3c2CCN(c2cccc4cccc(Cl)c24)C3)CC1CC#N (stereo not drawn) + Cc1c(S(C)(=O)=O)c(-c2cc(F)cc(N3CCN(c4ccc(NS(=O)(=O)c5ccc(NC(CCN6CCC(C(=O)OCCCP(=O)(O)O)CC6)CSc6ccccc6)c(S(=O)(=O)C(F)(F)F)c5)cc4)CC3)c2)c(-c2ccc(Cl)cc2)n1C(C)C	viability, T/C	%	1.06
C=CC(=O)N1CCN(c2nc(=O)n(-c3c(C)ccnc3C(C)C)c3nc(-c4c(O)cccc4F)c(F)cc23)C(C)C1 (stereo not drawn) + Cc1c(S(C)(=O)=O)c(-c2cc(F)cc(N3CCN(c4ccc(NS(=O)(=O)c5ccc(NC(CCN6CCC(C(=O)OCCCP(=O)(O)O)CC6)CSc6ccccc6)c(S(=O)(=O)C(F)(F)F)c5)cc4)CC3)c2)c(-c2ccc(Cl)cc2)n1C(C)C	viability, T/C	%	81

Exercise: # viability, T/C lookup, item C#Cc1c(F)ccc2cc(O)cc(-c3ncc4c(N5CC6CCC(C5)N6)nc(OCC56CCCN5CC(F)C6)nc4c3F)c12 (stereo not drawn) + Cc1c(S(C)(=O)=O)c(-c2cc(F)cc(N3CCN(c4ccc(NS(=O)(=O)c5ccc(NC(CCN6CCC(C(=O)OCCCP(=O)(O)O)CC6)CSc6ccccc6)c(S(=O)(=O)C(F)(F)F)c5)cc4)CC3)c2)c(-c2ccc(Cl)cc2)n1C(C)C
Key: 84.1
